# tested.target: T1, cynomolgus monkey CD8A on primary cynomolgus monkey CD8+ T cells (cynomolgus monkey, UniProt P01732 23-235 (human entry))
# T1 construct: also called Cyno CD8alpha
# T1 sequence (P01732 other isoform, or with tags, fused parts or gaps limits assumed): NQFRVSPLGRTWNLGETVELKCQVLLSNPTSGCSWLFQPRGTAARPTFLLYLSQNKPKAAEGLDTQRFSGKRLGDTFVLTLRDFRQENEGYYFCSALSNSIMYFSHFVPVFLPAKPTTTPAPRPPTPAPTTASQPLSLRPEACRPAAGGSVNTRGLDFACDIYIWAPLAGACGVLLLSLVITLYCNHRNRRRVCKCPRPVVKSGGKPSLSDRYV
# test.summary: flow cytometry, cyno CD8+ T cells, 2 uM FN3
measure.name: Cyno T-cell Binding 2 uM (MFI)

>>> recorded_value("P282FR9P1361_A3 (designed binder, FN3 domain) LPAPKNLVVSRVTEDSARLSWTAPDAAFDSFDIWYAEYGYPGEAIVLTVPGSERSYDLTGLKPGTEYDVAIVGVKGGNRSYPLSAIFTT")
8480

A = P282AR9P1356_A10 (designed binder, FN3 domain) LPAPKNLVVSRVTEDSARLSWHTATNSFDSFLIQYQESEKVGEAIVLTVPGSERSYDLTGLKPGTEYTVSIYGVDVDYNPTGRPVSSNPLSAIFTT
B = P282ER9P1360_H10 (designed binder, FN3 domain) LPAPKNLVVSRVTEDSARLSWTAPDAAFDSFEIYYPEWPFAGEAIGLPVPGSERSYDLTGLKPGTEYFVVIYGVKGGELSEPLTAQFTT
C = P283BR9P1363_E4 (designed binder, FN3 domain) LPAPKNLVVSRVTEDSARLSWIKSETSQPAFDSFLIQYQESEKVGEAIVLTVPGSERSYDLTGLKPGTEYTVSIYGVDVKWEGNRPVASNPLSAIFTT
Enquiry: Task field, ranking: reported Cyno T-cell Binding 2 uM (MFI), descending order. Use the labels to give the requested order.
Return: B, C, A
